Assay: Toxicity liver stage against HepG2, at 10uM
Type: cell-based
Design: test concentration 10 uM, cell line HepG2-A16-CD81EGFP
Settings: human, HepG2-A16-CD81EGFP cells; read-out: INHIBITION
quantity-name: cytotoxicity at 10 µM (%)
Write down the numeric answer in % and omit the unit.

Take a look at these entries with their results.
molecule=CCCNC(=O)c1ccc(NC(=O)c2cccc(OCC)c2)cc1 result=-10.5
molecule=O=C(Cn1cc(Cl)cn1)NCCN1CCC(O)(c2ccc(F)cc2)CC1 result=3.41
molecule=Cc1cc(C(=O)N2C[C@H](C(C)C)[C@@H](N(C)C)C2)cs1 result=-0.421
molecule=O=C1C[C@@H]2CC[C@H](CN1)N2C(=O)CCCc1ccc(Cl)cc1 result=-7.05

Return reported cytotoxicity at 10 µM. Input molecule: Cc1nc(CCCNC(=O)c2c(F)cc(F)cc2F)n[nH]1
-4.31

Return reported cytotoxicity at 10 µM. Input molecule: Cc1nc(C2CCN(S(=O)(=O)c3ccc4c(c3)CCO4)CC2)n[nH]1
-8.91

Return reported cytotoxicity at 10 µM. Input molecule: Cc1ccc2[nH]nc(C(=O)NCC3CCN(Cc4c[nH]cn4)C3)c2c1 (stereo unspecified)
-15.1

Return reported cytotoxicity at 10 µM. Input molecule: COC(=O)NCC(=O)N1CCCn2nc(CN3CC[C@H](F)C3)cc2C1
13

Return reported cytotoxicity at 10 µM. Input molecule: COc1cccc(CNc2cccnc2-n2cccn2)c1OC
1

Return reported cytotoxicity at 10 µM. Input molecule: O=C(c1cn(Cc2ccc(Cl)cc2)nn1)N1CCCO1
-6.01

Return reported cytotoxicity at 10 µM. Input molecule: Cc1csc([C@H]2C[C@H]3CN(Cc4cc(C)on4)CC[C@@H]3O2)n1
-98

---

Assay: Toxicity liver stage against HepG2, at 10uM
Format: cell-based
Parameters: test concentration 10 uM, cell line HepG2-A16-CD81EGFP
Conditions: human, HepG2-A16-CD81EGFP cells; read-out: INHIBITION
quantity-name: cytotoxicity at 10 µM (%)
Write down the numeric answer in % and omit the unit.

Take a look at these entries with their results.
compound=CC(C)=CCN1C[C@@H]2CC[C@H]1CN(Cc1cc(=O)[nH]c(=O)[nH]1)C2 quantity_name="cytotoxicity at 10 µM" result=-17.3
compound="Cc1ccc(N2CCC3(CCCN(C(=O)c4cccnc4)C3)C2)nn1 (stereo unspecified)" quantity_name="cytotoxicity at 10 µM" result=2.21
compound=CS(=O)(=O)CCNC(=O)Nc1ccc(Cl)cc1-n1cccc1 quantity_name="cytotoxicity at 10 µM" result=48.2
compound=COC(=O)CCNC(=O)c1cc(Br)c2c(c1)OCCO2 quantity_name="cytotoxicity at 10 µM" result=11
compound="O=C1C(NS(=O)(=O)c2ccc(F)cc2)CCN1Cc1ccccc1 (stereo unspecified)" quantity_name="cytotoxicity at 10 µM" result=-3.48

Return reported cytotoxicity at 10 µM. Input compound: CC(=O)N1N=C(COc2ccc(C)cc2)OC1c1ccc(N(C)C)cc1 (stereo unspecified)
-3.33

Return reported cytotoxicity at 10 µM. Input compound: CC(C)COCCCNC(=O)NC(C)c1ccc(-n2cncn2)cc1 (stereo unspecified)
2.42

---

Assay: Toxicity liver stage against HepG2, at 10uM
Type: cell-based
Set-up: test concentration 10 uM, cell line HepG2-A16-CD81EGFP
Settings: human, HepG2-A16-CD81EGFP cells; read-out: INHIBITION
quantity-name: cytotoxicity at 10 µM (%)
Write down the numeric answer in % and omit the unit.

Take a look at these entries with their results.
molecule="CNC(=O)C(C)CN(C)C(=O)Nc1ccc(Cl)cc1-n1cccc1 (stereo not given)" readout_units=% result=16.9
molecule=O=C1CCNc2ccccc2CN1Cc1ccco1 readout_units=% result=1.22
molecule=Cc1nnc([C@@]23CCO[C@@H]2CCN(S(=O)(=O)c2cccnc2)C3)o1 readout_units=% result=-103
molecule=CNC(=O)CCOC(=O)c1cccc(-n2ccc(C(F)(F)F)n2)c1 readout_units=% result=-41.9
molecule=Cc1cc(C(=O)N2CCn3cc(CN4CCCCC4)nc3C2)no1 readout_units=% result=-77.3
molecule=CC(C)Oc1ccc2c(NC(=O)[C@H](C)O)nn(CC(F)(F)F)c2c1 readout_units=% result=-4.87

Return reported cytotoxicity at 10 µM. Input molecule: Cn1cc(CN(Cc2ccccc2)Cc2ccccn2)cn1
19.1

Return reported cytotoxicity at 10 µM. Input molecule: Cc1cc(-c2nc(-c3ccccn3)nn2C2CCN(C)CC2)nc(C)n1
-3.14

Return reported cytotoxicity at 10 µM. Input molecule: CCOc1ccnc(N2CCN(C(=O)c3cc[nH]n3)CC2)n1
8.82

Return reported cytotoxicity at 10 µM. Input molecule: COCCN(C)C[C@@H]1CCC[C@@H]2CN(c3cc(OC)ncn3)C[C@@H]21
1.75

Return reported cytotoxicity at 10 µM. Input molecule: Cc1cnn(CCC(=O)N2CCN(c3nc(C)cs3)CC2)c1
-11.9
